B1: IFRG15 (parent)
chain: INRADYCPECYPDNPANRSLVLPW

Variants of: B1
Assay: protein stability index of a GFP-peptide fusion (GPS, HEK-293T) (PSI 1-6); higher = more stable;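 also: lentivirally expressed fusions sorted by FACS into six bins by GFP to DsRed ratio, PSI derived from sequencing read proportions per bin multiplied by bin number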
Settings: c terminus: a fixed tail appended
PROPERTY LABEL: protein stability index

Please supply protein stability index for each of the following items, keeping them in order.
1. INRADYCPECYPDNPHNRSLVLPW
2. INRADYCPECYPDWPANRSLVLPW

Result string:
1: 1.71; 2: 1.03

These measurements were taken from the supplement of paper PMC10567573.
